System: UACC-257 melanoma
Assay: NCI-60 one-dose screen, 48 h (100 = growth as untreated, 0 = no growth, -100 = all killed)
Conditions: 10 µM
Compounds without any hit were thinned out: in the full panel of roughly 83,000, 20% have a hit.
MEASUREMENT_NAME: growth (%)
Please state the figure in %; there is no need to write the unit.

Examples from the recorded data:
Q: # get_value(readout='growth', item= N#Cc1ccc(-c2nn(-c3ccc(C(=O)O)cc3)cc2CNc2ccc(Cl)cc2)cc1 )
Result: 97.8

Q: # get_value(readout='growth', item= CC(C)C1=C[C@@]23CC[C@@H]4[C@](C)(CCC[C@]4(C)C(=O)NCc4ccccc4)[C@H]2C[C@@H]1[C@H]1C(=O)OC(=O)[C@H]13 )
Result: 82.1

Q: # get_value(readout='growth', item= CN(C(=O)c1ccc(C(C)(C)C)cc1)c1sc2c(c1C#N)CCC(=O)C2 )
Result: 97

Q: # get_value(readout='growth', item= C=C1CCC2C3(C)COC(c4cccc(F)c4)OC3CCC2(C)C1CC(O)C1=CCOC1=O (stereo unspecified) )
Result: 72.7

Q: # get_value(readout='growth', item= CS(=O)(=O)Nc1ccc(-c2ccc3c(c2)ncn3-c2ccc(NC(=O)Nc3ccc(Cl)c(C(F)(F)F)c3)cc2)cc1 )
Result: -57.2

Q: # get_value(readout='growth', item= N#Cc1ccc(-c2nn(-c3ccc(C(=O)O)cc3)cc2CNc2cc(Cl)cc(Cl)c2)cc1 )
Result: 60.2

More entries:
Q: # get_value(readout='growth', item= O=c1[nH]n(C(=S)N/N=C/c2ccc(F)cc2)c(=O)c2ccccc12 )
Result: 95

Q: # get_value(readout='growth', item= COC(=O)C(Cc1ccc(O)c(O)c1)NC(=O)C(CSC/C=C(\C)CCCC(C)CCCC(C)CCCC(C)C)NC(C)=O (stereo unspecified) )
Result: 56.4

Q: # get_value(readout='growth', item= COc1ccccc1C(=O)NNC(=O)CSc1nc2c(c(=O)[nH]1)CCCC2 )
Result: 107

Q: # get_value(readout='growth', item= O=C1Nc2cc(Cl)ccc2/C1=C/c1cccc(OCc2ccc(Br)cc2F)c1 )
Result: 45.9

Q: # get_value(readout='growth', item= O=S(=O)(Nc1ncccn1)c1ccc(-n2c(-c3ccccc3)nc(-c3ccccc3)c2-c2ccccc2)cc1 )
Result: 118

Q: # get_value(readout='growth', item= COc1cccc(-c2nn(-c3ccccc3)cc2-c2ccnc(NCCCNC(=O)Nc3ccc(F)cc3)c2)c1 )
Result: -11.9

Q: # get_value(readout='growth', item= O=C(O)CCCCCCCCCCN1C(=O)/C(=C/c2cnc(-c3ccc(Cl)cc3)s2)SC1=S )
Result: 87.6

Q: # get_value(readout='growth', item= CN1CCCN(Cc2ccc(C(=O)Nc3cccc(Nc4ccc5c(O)cccc5n4)c3)cc2C(F)(F)F)CC1 )
Result: -81.3

Q: # get_value(readout='growth', item= O=C(CSc1nnc(-c2c[nH]c3ccccc23)n1-c1ccccc1)Nc1ccc(C(=O)/C=C/c2ccc(Br)cc2)cc1 )
Result: 109

Q: # get_value(readout='growth', item= Cc1ccn2c(C(=O)c3ccc(Br)cc3)cc(-c3cc(-c4ccc(N(C)C)cc4)c(C#N)c(N)n3)c2c1 )
Result: 79.7

Q: # get_value(readout='growth', item= CC1(c2ccccc2)NC(=O)N(CC(=O)Nc2ccc(C(=O)/C=C/c3ccccc3)cc2)C1=O (stereo unspecified) )
Result: 63.5

Q: # get_value(readout='growth', item= O=C(N=Nc1c(O)[nH]c2ccc(Br)cc12)c1ccc2nc(-c3ccccc3)[nH]c2c1 )
Result: -19.9

Q: # get_value(readout='growth', item= COc1ccc2[nH]c(=O)c(CSc3ccc(Nc4nccc(-c5ccc(Cl)cc5)n4)cc3)cc2c1 )
Result: 120

Q: # get_value(readout='growth', item= Cc1ccc(NC(=O)c2ccc(-n3c(=O)[nH]c4ccccc4c3=O)cc2)cc1 )
Result: 122

Q: # get_value(readout='growth', item= O=C1NC(=NC2CCCCCC2)N/C1=C\c1ccc2ncoc2c1 )
Result: 48.7

---

The following compounds are shown together with reported growth values.
Tested on: HS 578T breast
Assay: NCI-60 one-dose screen, 48 h (100 = growth as untreated, 0 = no growth, -100 = all killed)
Settings: 10 µM
Protocol: Growth inhibition of the HS 578T human tumor cell line is measured as a screen for anti-cancer activity. Cells are grown in 96 well plates and exposed to the test compound for 48 hours. Compounds are tested at a single concentration, which is 10^-5 M for most compounds. The reported endpoint is percent growth (GI% or GIPRCNT), where numbers from 0 - 100% represent growth inhibition, and numbers from -100% - 0 represent cell death. For example, a value of 40 represents 60% growth inhibition. […]
This is part of a sample that, as a whole, favours compounds with a hit. Of some 83,000 tested, about 20% had one in any assay.
Please state the figure in %; there is no need to write the unit.

Q: # get_value(readout='growth', item= Cc1cc(C)nc(NS(=O)(=O)c2ccc(N/C(N)=N/c3nccc(-c4ccccc4)n3)cc2)n1 )
Result: 48.1

Q: # get_value(readout='growth', item= COc1nccnc1NS(=O)(=O)c1ccc(NC2=C(Cl)C(=O)c3nc(C)ccc3C2=O)cc1 )
Result: 92.8

Q: # get_value(readout='growth', item= COc1cnc2c(c1)C(=O)c1c-2n(CCCNCCO)c(=O)c2cc(OC)c(OC)cc12 )
Result: 105

Q: # get_value(readout='growth', item= Cc1nn(-c2ccccc2)c2ncn(CC(=O)N/N=C/c3c[nH]c4ccccc34)c(=O)c12 )
Result: 72.7

Q: # get_value(readout='growth', item= COc1ccc2nc(Cl)c(-c3cc(-c4ccccc4)nc(=O)[nH]3)cc2c1 )
Result: 77.3

Q: # get_value(readout='growth', item= CC(=O)Nc1ccc(-c2cn(-c3cccc(C(=O)Nc4cccc(OC(F)(F)F)c4)c3)nn2)cn1 )
Result: 53.7

Q: # get_value(readout='growth', item= O=C1Nc2ccc(Cl)cc2/C1=C/c1ccc(OCc2ccc(Br)cc2F)cc1 )
Result: -0.705

Q: # get_value(readout='growth', item= CC(=O)Nc1nc(-c2ccc(N3CCN(C)CC3)c(NS(=O)(=O)c3cccc4c(N(C)C)cccc34)c2)cs1 )
Result: 41

Q: # get_value(readout='growth', item= COc1ccc(N2N=C(c3ccc4c(c3)OCCO4)CC2c2cccc(NC(=O)CCCNS(=O)(=O)c3ccc(F)cc3)c2)cc1 (centres undefined) )
Result: 78.7

Q: # get_value(readout='growth', item= CN1CCN(Cc2ccc(NC(=O)c3cncc(C#Cc4cnc5ccc(N[C@@H]6CCOC6)nn45)c3)cc2C(F)(F)F)CC1 )
Result: -41

Q: # get_value(readout='growth', item= CCOC(=O)C1=C(N)N(c2ccc(Cl)cc2)C2=C(C(=O)CC(C)(C)C2)C1c1ccc(N2CCOCC2)cc1 (centres undefined) )
Result: 109

Q: # get_value(readout='growth', item= O=c1[nH]c2ccc(Cl)cc2cc1CSc1ccc(Nc2nccc(-c3ccc(Cl)cc3)n2)cc1 )
Result: 56.8

Q: # get_value(readout='growth', item= CCCCSc1nc(Nc2ccc(/C(C)=N/NC(N)=S)cc2)c(C#N)c(-c2ccc(OC)cc2)n1 )
Result: 20.3

---

System: MDA-MB-231 breast
Assay: NCI-60 one-dose screen, 48 h
Details: 10 µM
The panel holds about 83,000 compounds, 20% with a hit somewhere; the sample as a whole holds those more often. Active and inactive are the calls of the source. How the source made its calls: active means growth percent below 10; inactive means the rest.
Result category, one only: t = active, f = inactive

Q: Hi, do you know how C#CCNC(=O)CCC(=O)OC[C@]12CC[C@@H](C(=C)C)[C@@H]1C1CC[C@@H]3[C@@]4(C)CCCNC(C)(C)[C@@H]4CC[C@@]3(C)[C@]1(C)CC2 (stereo partly drawn) came out in this test?
Result: t

Q: Hi, do you know how C/C(=C\CSc1ccccc1C(=O)O)CCCC(C)CCCC(C)CCCC(C)C (stereo not drawn) came out in this test?
Result: f

Q: Hi, do you know how O=[N+]([O-])c1ccc(-c2nc(-c3ccccc3)c(-c3ccccc3)n2-c2ccc(S(=O)(=O)Nc3ncccn3)cc2)cc1 came out in this test?
Result: f

Q: Hi, do you know how C=C1CC[C@H](C(=C)C)[C@H]2C=C(C)C(=O)C3=C(C(=O)[C@@](C)(O)C3)[C@H]12 came out in this test?
Result: t

Q: Hi, do you know how O=C(CNc1nc(-c2ccccc2)cs1)Nc1ccc([N+](=O)[O-])cc1 came out in this test?
Result: t

More entries:
Q: Hi, do you know how CC(=O)Nc1ccc(-c2cn(-c3cccc(C(=O)Nc4cc(CN5CCOCC5)cc(C(F)(F)F)c4)c3)nn2)cn1 came out in this test?
Result: t

Q: Hi, do you know how O=C(c1ccc(-n2c(=O)[nH]c3ccccc3c2=O)cc1)N1CCOCC1 came out in this test?
Result: f

Q: Hi, do you know how CC[C@]12C=CCN3CC[C@@]4(c5cc(C#CCNc6ccc(C)c(Nc7nccc(-c8cccnc8)n7)c6)c(OC)cc5N(C)[C@H]4[C@@](O)(C(=O)OC)[C@@H]1OC(C)=O)C32 (stereo partly drawn) came out in this test?
Result: f
